Run description: yeast display, Sf9 membrane polyspecificity reagent, FACS + sequencing; frameworks hold sequencing errors
Observable: polyreactivity (PSR sort gate)

{"columns": ["Sequence chain", "Observable", "Result value"],
 "data": [
  ["QVQLVESGGGLVQAGGSLRLSCAASGSTFQLYAMGWYRQAPGKERELVAAISGIGDSTYYADSVKGRFTISRDNAKNTVYLQMNSLKPEDTAVYYCAREFSDGLSGKFDYWGQGTQVTVSS", "polyreactivity (PSR sort gate)", "low polyreactivity"],
  ["QVQLVESGGGLVQAGGSLRLICAASGRIFYGYAMGWYRPAPGKEREFVAAITVSAGSTYYADSVKGRFTISRDNAKNTVYLQMNSLKPEDTAVYYCAAKRYVYPSYRFDYWGQGTQVTVSS", "polyreactivity (PSR sort gate)", "low polyreactivity"]
]}
